assayTarget: T1, sEGFR-MMB (dimeric sEGFR mimetibody) (human)
T1 construct: Disulfide-linked homodimer: QIQ, sEGFR, flexible linker, J segment, human IgG1 hinge, CH2, CH3; also called sEGFR-Fc; dimeric EGFR
T1 sequence (chain, as listed by the source limits assumed): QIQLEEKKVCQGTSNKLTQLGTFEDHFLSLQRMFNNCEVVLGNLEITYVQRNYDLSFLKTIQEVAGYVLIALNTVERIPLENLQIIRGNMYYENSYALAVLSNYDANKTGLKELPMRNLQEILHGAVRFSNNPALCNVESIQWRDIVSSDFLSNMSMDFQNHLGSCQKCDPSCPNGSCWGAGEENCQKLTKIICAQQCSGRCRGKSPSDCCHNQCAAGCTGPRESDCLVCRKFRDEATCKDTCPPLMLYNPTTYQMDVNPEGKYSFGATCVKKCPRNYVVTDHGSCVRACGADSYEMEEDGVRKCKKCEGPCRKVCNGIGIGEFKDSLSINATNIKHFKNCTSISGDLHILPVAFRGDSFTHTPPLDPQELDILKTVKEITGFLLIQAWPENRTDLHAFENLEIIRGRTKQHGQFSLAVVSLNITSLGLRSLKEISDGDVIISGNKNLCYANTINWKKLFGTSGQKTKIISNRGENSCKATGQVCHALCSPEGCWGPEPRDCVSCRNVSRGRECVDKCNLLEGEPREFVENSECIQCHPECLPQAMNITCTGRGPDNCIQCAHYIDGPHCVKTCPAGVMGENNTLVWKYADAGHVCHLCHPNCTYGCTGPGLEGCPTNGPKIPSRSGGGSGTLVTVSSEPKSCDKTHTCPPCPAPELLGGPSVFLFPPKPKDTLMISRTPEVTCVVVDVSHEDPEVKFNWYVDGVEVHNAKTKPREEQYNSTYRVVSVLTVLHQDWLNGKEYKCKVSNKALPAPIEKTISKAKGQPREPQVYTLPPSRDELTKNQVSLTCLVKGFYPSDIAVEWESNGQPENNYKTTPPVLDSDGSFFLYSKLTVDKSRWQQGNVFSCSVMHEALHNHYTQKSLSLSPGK
runDescription: phage ELISA on coated sEGFR-MMB, chemiluminescence (background typically <200 units)
Record form. Attribute: ELISA. Fill in for each entry.
Enter your answer as a number in units; do not include the unit.

// ELISA value for GGGPIFSSLPVLYCTSQLGGGSGGSGG (pIX phagemid display, library S15; not shown: M13 phage coat protein pIX (MSVL...)) [phage clone displaying SEQ ID NO: 18 (S15 hit)] : 1420

// ELISA value for GGGYRLFVDESIFFCTRLGGGSGGSGG (pIX phagemid display, library S15; not shown: M13 phage coat protein pIX (MSVL...)) [phage clone displaying SEQ ID NO: 10 (S15 hit)] : 3080

// ELISA value for GGGSTITSLPTLQCWPILGGGSGGSGG (pIX phagemid display, library S15; not shown: M13 phage coat protein pIX (MSVL...)) [phage clone displaying SEQ ID NO: 16 (S15 hit)] : 13300

// ELISA value for GGGTVFTLPELVCVVAGTGGGSGGSGG (pIX phagemid display, library S15; not shown: M13 phage coat protein pIX (MSVL...)) [phage clone displaying SEQ ID NO: 20 (S15 hit)] : 1520

// ELISA value for GGGPIDDESLPVLYCVTSGGGSGGSGG (pIX phagemid display, library S15; not shown: M13 phage coat protein pIX (MSVL...)) [phage clone displaying SEQ ID NO: 17 (S15 hit)] : 1780

// ELISA value for GGGLPDLICAVDSGTSGAGGGSGGSGG (pIX phagemid display, library S15; not shown: M13 phage coat protein pIX (MSVL...)) [phage clone displaying SEQ ID NO: 21 (S15 hit)] : 1160
